Biological target: xanthine oxidase from bovine milk (Bos taurus)
Construct: xanthine oxidase from bovine milk; purchased Sigma-Aldrich (St. Louis, MO, USA); host or cells: bovine milk
Assay: Inhibition of xanthine oxidase
Format: biochemical
Conditions: up to highest concentration tested (167 µM)
readoutType: XO inhibition (in words)

Study these solved cases before continuing.
# compound, XO inhibition (in words)
rows = [
    ("O=C(O)c1ccccc1 [Benzoic acid]", "inactive"),
    ("O=C(O)Cc1ccc(O)c(O)c1 [3,4-Dihydroxyphenylacetic acid]", "inactive"),
    ("O=C(O)Cc1cccc(O)c1 [3-Hydroxyphenylacetic acid]", "inactive"),
    ("Cc1ccc(O)c(O)c1 [4-Methylcatechol]", "inactive"),
    ("Oc1cc(O)c2c(c1)O[C@H](c1ccc(O)c(O)c1)[C@H](O)C2 [Epicatechin]", "did not inhibit"),
]

Now for the compound whose XO inhibition (in words) we want.
Sure, the documented XO inhibition (in words) for Oc1cc(O)c2c(c1)O[C@H](c1ccc(O)c(O)c1)[C@@H](O)C2 [Catechin] is did not inhibit

----------
Target: xanthine oxidase from bovine milk (Bos taurus, UniProt P80457)
Sequence (P80457 whole entry): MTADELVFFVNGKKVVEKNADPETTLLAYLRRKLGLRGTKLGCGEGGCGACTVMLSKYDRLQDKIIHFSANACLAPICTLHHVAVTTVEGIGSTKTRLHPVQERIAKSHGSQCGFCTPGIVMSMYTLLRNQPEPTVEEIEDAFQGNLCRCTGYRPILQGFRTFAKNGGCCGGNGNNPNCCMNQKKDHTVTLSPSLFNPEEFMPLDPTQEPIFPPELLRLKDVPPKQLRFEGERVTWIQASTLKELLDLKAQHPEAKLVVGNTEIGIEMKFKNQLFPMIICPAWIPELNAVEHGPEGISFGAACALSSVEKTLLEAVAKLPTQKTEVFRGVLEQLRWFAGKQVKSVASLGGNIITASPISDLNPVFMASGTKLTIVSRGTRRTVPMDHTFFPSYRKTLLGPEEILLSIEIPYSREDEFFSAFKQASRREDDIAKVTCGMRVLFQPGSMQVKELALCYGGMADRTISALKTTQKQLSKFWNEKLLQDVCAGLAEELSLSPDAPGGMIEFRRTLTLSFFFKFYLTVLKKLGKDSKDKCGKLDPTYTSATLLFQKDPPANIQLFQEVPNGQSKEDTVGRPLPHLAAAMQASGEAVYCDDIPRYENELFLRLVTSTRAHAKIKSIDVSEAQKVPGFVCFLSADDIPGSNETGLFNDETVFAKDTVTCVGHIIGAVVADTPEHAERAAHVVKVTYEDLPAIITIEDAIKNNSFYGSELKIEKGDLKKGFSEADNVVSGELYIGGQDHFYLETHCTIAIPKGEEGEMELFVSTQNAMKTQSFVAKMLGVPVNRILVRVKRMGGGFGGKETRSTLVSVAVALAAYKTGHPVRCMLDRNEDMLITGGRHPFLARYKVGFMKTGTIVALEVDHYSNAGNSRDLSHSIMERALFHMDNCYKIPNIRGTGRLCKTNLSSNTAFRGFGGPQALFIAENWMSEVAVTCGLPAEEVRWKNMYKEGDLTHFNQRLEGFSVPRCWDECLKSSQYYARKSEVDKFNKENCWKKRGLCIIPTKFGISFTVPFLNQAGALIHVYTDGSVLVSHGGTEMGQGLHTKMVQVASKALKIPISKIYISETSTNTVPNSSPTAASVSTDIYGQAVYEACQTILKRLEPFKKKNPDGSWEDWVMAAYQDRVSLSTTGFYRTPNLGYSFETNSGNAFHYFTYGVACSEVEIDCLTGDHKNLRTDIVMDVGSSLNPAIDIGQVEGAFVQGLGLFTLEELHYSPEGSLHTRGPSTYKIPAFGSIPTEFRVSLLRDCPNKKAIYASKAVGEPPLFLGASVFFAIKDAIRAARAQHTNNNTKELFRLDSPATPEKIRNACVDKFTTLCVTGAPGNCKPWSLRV
Kindly supply the reported IC50 values for the records listed here.
API: value field is a number in µM; no unit string.

Looking up CC1OC(OCC2OC(Oc3c(-c4ccc(O)cc4)oc4cc(O)cc(O)c4c3=O)C(O)C(O)C2O)C(O)C(O)C1O (stereo not drawn) [Kaempferol-3-rutinoside] , I see its IC50 listed as 63.8

Record summary for O=c1c(OC2OC(CO)C(O)C(O)C2O)c(-c2ccc(O)c(O)c2)oc2cc(O)cc(O)c12 (stereo not drawn) [Quercetin-3-glucoside] : reported IC50 = 106

IC50 in this record for CC1OC(Oc2c(-c3ccc(O)c(O)c3)oc3cc(O)cc(O)c3c2=O)C(O)C(O)C1O (stereo not drawn) [Quercetin-3-rhamnoside] : 105

Measured IC50, O=C(O)/C=C/c1ccc(O)c(O)c1 [Caffeic acid] : 107

IC50 in this record for C[C@@H]1O[C@@H](OC[C@H]2O[C@@H](Oc3c(-c4ccc(O)c(O)c4)oc4cc(O)cc(O)c4c3=O)[C@H](O)[C@@H](O)[C@@H]2O)[C@H](O)[C@H](O)[C@H]1O [Rutin, Quercetin-3-rutinoside] : 42.9

----------
Kindly supply the reported IC50 values for the records listed here.
Molecular target: 15-lipoxygenase (15-LO) from soybeans (Glycine max, UniProt P08170)
Construct: 15-lipoxygenase (15-LO) from soybeans; purchased Sigma-Aldrich (St. Louis, MO, USA); host or cells: soybeans
Sequence (P08170 whole entry): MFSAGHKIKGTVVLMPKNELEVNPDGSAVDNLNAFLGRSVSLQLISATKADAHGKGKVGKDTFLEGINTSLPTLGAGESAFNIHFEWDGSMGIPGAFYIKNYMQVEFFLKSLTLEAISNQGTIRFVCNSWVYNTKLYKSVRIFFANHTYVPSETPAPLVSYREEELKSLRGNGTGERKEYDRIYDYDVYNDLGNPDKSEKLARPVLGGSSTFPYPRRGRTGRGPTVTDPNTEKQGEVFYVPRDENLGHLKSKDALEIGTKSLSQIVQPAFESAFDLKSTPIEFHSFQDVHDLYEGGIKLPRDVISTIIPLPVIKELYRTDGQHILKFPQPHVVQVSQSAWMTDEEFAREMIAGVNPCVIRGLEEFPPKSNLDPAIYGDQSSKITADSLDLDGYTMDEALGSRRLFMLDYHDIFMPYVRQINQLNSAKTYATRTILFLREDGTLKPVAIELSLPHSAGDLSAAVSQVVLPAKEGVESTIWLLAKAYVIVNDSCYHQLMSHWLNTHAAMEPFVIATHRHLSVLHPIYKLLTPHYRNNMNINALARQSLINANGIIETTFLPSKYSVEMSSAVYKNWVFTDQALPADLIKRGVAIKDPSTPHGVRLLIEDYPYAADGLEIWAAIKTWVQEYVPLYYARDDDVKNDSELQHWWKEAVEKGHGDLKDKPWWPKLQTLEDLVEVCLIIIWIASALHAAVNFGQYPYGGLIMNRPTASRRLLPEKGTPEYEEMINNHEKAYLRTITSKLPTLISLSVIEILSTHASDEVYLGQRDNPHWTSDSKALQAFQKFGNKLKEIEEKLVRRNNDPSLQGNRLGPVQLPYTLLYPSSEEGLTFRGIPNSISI
Assay: Inhibition of 15-lipoxygenase
Type: biochemical, soybean
Conditions: phenolic compounds and metabolites; IC50 ± SD; read-out: 15-LO IC50
Please respond with the number in µM and leave the unit unwritten.

The molecule listed as C[C@@H]1O[C@@H](OC[C@H]2O[C@@H](Oc3c(-c4ccc(O)c(O)c4)oc4cc(O)cc(O)c4c3=O)[C@H](O)[C@@H](O)[C@@H]2O)[C@H](O)[C@H](O)[C@H]1O [Rutin, Quercetin-3-rutinoside] shows IC50 equal to 99.3

Entry O=C1C[C@@H](c2ccc(O)cc2)Oc2cc(O)cc(O)c21 ; IC50 = 124

// recorded IC50 for O=c1c(O)c(-c2ccc(O)cc2)oc2cc(O)cc(O)c12 : 93.7

Value of IC50 reported for the molecule Cc1ccc(O)c(O)c1 is 129

The value of IC50 measured for the molecule COc1cc(-c2oc3cc(O)cc(O)c3c(=O)c2OC2OC(COC3OC(C)C(O)C(O)C3O)C(O)C(O)C2O)ccc1O (centres unmarked) [Isorhamnetin-3-rutinoside] turned out to be 115

get_value(item= O=C(/C=C/c1ccc(O)c(O)c1)O[C@@H]1C[C@](O)(C(=O)O)C[C@@H](O)[C@H]1O , readout=IC50) returns 106

Item: O=C(C=Cc1ccc(O)c(O)c1)OC1CC(O)(C(=O)O)CC(O)C1O (centres unmarked) | IC50: 115

Field IC50 (entry Oc1cc(O)c2c(c1)O[C@H](c1ccc(O)c(O)c1)[C@H](O)C2 [Epicatechin] ) reads 116
